Consider the following substances; for each one, report its Mol Fraction Unbound.
biological target: PKCα catalytic domain (Homo sapiens); construct: All activity assays were performed with 50 nM isolated catalytic domain in PKC Buffer; fused substrate peptide with the fluorophore next to it (N, cleaved yes); second fluorophore of the mCerulean/mCitrine pair (next to the catalytic domain) (N); FLAG; made in house; host or cells: Sf9 insect cells (pBiex1), then on-resin TEV cleavage; experiment: Time-resolved fluorescence decay (TCSPC) of peptide-catalytic domain FRET sensors; type: binding; details: eGFP/mCherry sensors, PKC Buffer containing 100 μM ATP; means ± SEM, N = 3
Answers are plain numbers.

The examples below pair each entry with its known result.
10: peptide substrate RRRRSIIFI, SEQ ID NO:22, Optimized PKA Sub.; Ala-substituted in FRET sensors [Peptide 10] : 0.84
6: peptide substrate ASQKRPSQRH, SEQ ID NO:14, from Myelin Basic Protein; Ala-substituted in FRET sensors [Peptide 6] : 0.92

8: peptide substrate IVRKATLRRLL, SEQ ID NO:18, from EGF Receptor; Ala-substituted sensor form SEQ ID NO:17 [Peptide 8] has a reported Mol Fraction Unbound of 0.89
